Test system: DMS-273
Test: NCI tumour cell line growth inhibition, 48 h
The source made the active and inactive calls. No stated cut-off is given here; in the data, active = GI50 up to about 1.1 µM and inactive = higher.
// GI50 lookup, one value per entry

Example cases with answers are listed next.
CSCSCC(N)CO.Cc1[nH]c(=O)[nH]c(=O)c1/C=C/C(=O)O; > 625 µM (inactive)
CC1SC2=NC3=C(c4ccccc4C3=O)C(c3ccc(Br)cc3)N2C1=O (centres undefined); > 100 µM (inactive)
CCCCCN(CCCCC)C(=O)[C@@H](CCC(=O)OCc1ccccc1)NC(=O)c1cc2ccccc2[nH]1; > 100 µM (inactive)
Cc1ccccc1NC(=O)C(=O)C(C1OC(=O)c2ccccc21)[N+](=O)[O-] (centres undefined); > 100 µM (inactive)
Cn1cc(NC(=O)c2cc(NC(=O)CCCCCC(=O)Nc3cc(C(=O)Nc4cc(C(=O)NCCC(=N)N)n(C)c4)n(C)c3)cn2C)cc1C(=O)NCCC(=N)N; 67.3 µM (inactive)

Specify reported GI50 for the compound shown: CCCCN(Cc1ccccc1)/C(=N/C#N)N(Cc1ccccc1)Cc1ccccc1
16.6 µM (inactive)

Specify reported GI50 for the compound shown: COC(=O)C1=C(C)N(NC(N)=O)C2(N)N(NC(N)=O)C(C)=C(C(=O)OC)C12C(=O)OC (centres undefined)
> 100 µM (inactive)

Specify reported GI50 for the compound shown: COC(CC1(OC)OC(=O)C=C1N)OC (centres undefined)
> 100 µM (inactive)

Specify reported GI50 for the compound shown: CN(C)C(=S)Nc1nnc(Nc2ccccc2)s1
> 100 µM (inactive)

###

System: SR
Assay: NCI tumour cell line growth inhibition, 48 h
The source made the active and inactive calls. No stated cut-off is given here; in the data, active = GI50 up to about 1.1 µM and inactive = higher.
// GI50 lookup, one value per entry

Example cases with answers are listed next.
CC(=O)OC12c3ccccc3-c3ccccc3C1C1C(=O)N(C)C(=O)C12Cl (configuration not stated); > 10 µM (inactive)
COc1ccc2nc3cc([N+](=O)[O-])ccc3c(Nc3ccc(S(=O)(=O)NC(C)=O)cc3)c2c1; 11.5 µM (inactive)
O=C(Oc1cccc(Cl)c1)c1cc2cc(CCl)ccc2oc1=O; 63.8 µM (inactive)
Cc1nc2ccccc2c(=O)n1/N=C(\N=N\c1cc(Cl)ccc1Cl)c1ccccc1; 44.8 µM (inactive)
CC(/C=N/N(C)C1=NCCCCN1)=N/N(C)C1=NCCCCN1; > 100 µM (inactive)

Specify reported GI50 for the compound shown: O=c1c2cc3c(cc2[nH]c2ncccc12)OCO3
> 10 µM (inactive)

Specify reported GI50 for the compound shown: CC(C(=O)OCc1ccccc1)(c1ccco1)N1C(=O)OC(c2ccccc2)C1c1ccccc1 (configuration not stated)
> 34.8 µM (inactive)

Specify reported GI50 for the compound shown: Cc1ccc([S+]([O-])c2cccs2)cc1 (configuration not stated)
> 100 µM (inactive)

Specify reported GI50 for the compound shown: NC(=O)N1N=C2c3ccccc3OC[C@H]2[C@@H]1c1ccccc1
6.31 µM (inactive)

Specify reported GI50 for the compound shown: CCC(=O)c1cc(C(=O)C(=S)SC)cc(C(=O)C(=S)SC)c1
11 µM (inactive)

###

System: OVCAR-5
Test: NCI tumour cell line growth inhibition, 48 h
Active and inactive are the calls of the source. Rule as the data show it: active = GI50 up to about 1.1 µM and inactive = higher.
measurement_name: GI50

CC(=O)CNC(=O)OC(C)(C)C; > 100 µM (inactive)

Specify reported GI50 for the compound shown: CC(=O)C1(O)CCC2(O)C3(O)CC=C4CC(O)CCC4(C)C3CC(OC(=O)c3ccc(O)cc3)C12C (centres undefined)
> 100 µM (inactive)

Specify reported GI50 for the compound shown: CC1(Br)CC2OC3(Br)C=CC(C)(O)C2(CC1=O)C3(C)C (centres undefined)
> 100 µM (inactive)

Specify reported GI50 for the compound shown: CCCCOc1ccc(NC(=N)Nc2ccc(Cl)cc2)cc1
1.68 µM (inactive)

Specify reported GI50 for the compound shown: C=C(C)[C@@]1(OC(=O)c2cc([N+](=O)[O-])cc([N+](=O)[O-])c2)C[C@@H]2CCCC[C@@H]21
> 100 µM (inactive)

Specify reported GI50 for the compound shown: CCOC(=O)C[n+]1ccc2c([nH]c3cc(OC)ccc32)c1C
> 100 µM (inactive)

Specify reported GI50 for the compound shown: COc1ccc(/C=C2/N/C(=N\N=C/C(O)C(O)C(O)C(O)CO)NC2=O)cc1 (centres undefined)
> 100 µM (inactive)

Specify reported GI50 for the compound shown: CC1CN=C(N(C(=O)Nc2ccc(F)c(Cl)c2)c2ccccc2)S1 (centres undefined)
28.2 µM (inactive)

Specify reported GI50 for the compound shown: O=C(O)/C(Cc1c[nH]nn1)=N\O
> 100 µM (inactive)

###

System: SF-268
Experiment: NCI tumour cell line growth inhibition, 48 h
Active and inactive are the calls of the source. Rule as the data show it: active = GI50 up to about 1.1 µM and inactive = higher.
# output must be one of active, inactive

CC(=O)c1ccc(NC(=O)C(=O)C(C(=O)/C=C/c2ccccc2)C2OC(=O)c3ccccc32)cc1 (stereo unspecified); inactive

What call does the record list for CN(C)Cc1cc(/N=N/c2ccc(Cl)cc2)cc(CN(C)C)c1O ?
inactive

What call does the record list for COc1ccc(C(NCCNC(c2ccc(OC)c(OC)c2)c2cc3c(cc2O)OCO3)c2cc3c(cc2O)OCO3)cc1OC (stereo unspecified) ?
inactive

What call does the record list for COC(CN(C)C(=O)C(C)NC(=O)c1ccccc1)OC (stereo unspecified) ?
inactive

What call does the record list for CC(=O)O[C@H]1C(=O)[C@@]2(C)C(C(OC(=O)c3ccccc3)[C@]3(O)CC(OC(=O)[C@H](OC(=O)CCC(=O)O)C(NC(=O)c4ccccc4)c4ccccc4)C(C)=C1C3(C)C)C1(OC(C)=O)COC1C[C@@H]2O (stereo partly specified) ?
active

What call does the record list for COC(=O)N1CC2C3C4CC(C(c5ccccc5)=C4c4ccccc4)C3C21 (stereo unspecified) ?
inactive

What call does the record list for C/C(=N\Nc1nc2cc(F)ccc2s1)c1ccccn1 ?
active

What call does the record list for O=C1c2ccccc2C(=O)N1C/C=N/NS(=O)(=O)c1cccc([N+](=O)[O-])c1 ?
inactive

What call does the record list for Clc1ccc(/C=N/c2ccc(Oc3ccc(Cl)cc3)c(Cl)c2)cc1 ?
inactive

What call does the record list for CCCCc1ccc(Nc2nc(SC)c3[nH]cnc3n2)cc1 ?
inactive

What call does the record list for O=C(CC(=O)c1cccc2ccccc12)C(=O)NC1C2CC3CC(C2)CC1C3 (stereo unspecified) ?
inactive

What call does the record list for O=S(=O)(O)c1ccc(/N=N\c2c(O)ccc3cc(Br)ccc23)cc1 ?
inactive

What call does the record list for Cn1c(=O)c(C(=O)NC(=O)NCCCCCOC(=O)CCCCCCCCCCC(=O)OCCCCCNC(=O)NC(=O)c2cn(Cc3ccccc3)c(=O)n(C)c2=O)cn(Cc2ccccc2)c1=O ?
inactive

###

Tested on: TK-10
Assay: NCI tumour cell line growth inhibition, 48 h
Activity calls are given as the source filed them. Cut-off read from the data, not from the text of the source: active = GI50 up to about 1.1 µM and inactive = higher.
measurement_name: GI50

Example cases with answers are listed next.
COc1ccc2nc3cc([N+](=O)[O-])ccc3c(Nc3ccc(S(=O)(=O)NC(C)=O)cc3)c2c1; 53.2 µM (inactive)
N#Cc1cc2c(n(C3OC(CO)C(O)C(O)C3O)c1=S)CCCCC2 (stereo not given); > 100 µM (inactive)
CC(C)(C)c1cc(C2COC(=O)COCCOCC(=O)OCCOCCO2)cc(C(C)(C)C)c1O (stereo not given); 16.5 µM (inactive)
C1=CC(N(c2ccccc2)C2C=CCCC2)CCC1 (stereo not given); > 100 µM (inactive)
COCOc1cc(OCOC)cc(C(=O)Oc2ccccc2)c1; > 100 µM (inactive)

# lookup: TK-10 GI50, key = COC1(C)CNCC(C)(C)NC(=O)C(C)(OC)CNCC(C)(C)NC1=O (stereo not given)
> 100 µM (inactive)

# lookup: TK-10 GI50, key = C=CN1C(=O)[C@H](Oc2ccccc2)[C@@H]1c1ccccc1
37.2 µM (inactive)

# lookup: TK-10 GI50, key = CC(C)C(=O)Nc1nc2c(ncn2C2OC(CO)C(O)C2O)c(=O)[nH]1 (stereo not given)
> 100 µM (inactive)

# lookup: TK-10 GI50, key = COC(=O)C(Cc1ccccc1)C(=O)NC(CNC(=O)OCc1ccccc1)C(=O)OCc1ccccc1 (stereo not given)
33.7 µM (inactive)

# lookup: TK-10 GI50, key = Nc1ncnc2c1ncn2C1OC(CSCc2ccc(Cl)cc2)C(O)C1O (stereo not given)
55 µM (inactive)

###

Test system: OVCAR-5
Test: NCI tumour cell line growth inhibition, 48 h
Activity calls are given as the source filed them. No stated cut-off is given here; in the data, active = GI50 up to about 1.1 µM and inactive = higher.
// GI50 lookup, one value per entry

CC[C@]12C=CCN3CCC4(c5cc(/N=N/c6ccc([N+](=O)[O-])cc6)c(OC)cc5N(C)[C@H]4[C@@](O)(C(=O)OC)[C@@H]1OC(C)=O)[C@@H]32 (some centres undefined); 13 µM (inactive)
O=C1N[C@@H](O)[C@@H]2ON=C(c3ccccc3)[C@H]12; > 100 µM (inactive)
CCCCN(Cc1ccccc1)/C(=N/C#N)N(Cc1ccccc1)Cc1ccccc1; 27 µM (inactive)

Now consider the entry below.
Specify reported GI50 for the compound shown: COc1cc(C=O)c(-c2cc3c(cc2C2(C)OCCS2)OCO3)c(OC)c1OC (centres undefined)
50 µM (inactive)
